- protocol summary: In vitro stability testing in 2% hog kidney homogenate
- Format: in vitro ADME
- test context: pig, kidney or brush border membranes, pH 7
- Method: Like most small linear polypeptides, motilin is believed to be metabolized by the brush border cells of the kidney. […] The average ratio for the peptide substrate was expressed as a percentage and plotted versus time. […] The rate of disappearance of the substrate was calculated using the Enzfitter program (Biosoft). Relative half-lives were determined from the relationship: […]
Positions of bridges follow the written chain, without caps; N, C: chain ends. Non-standard residues stand in square brackets, D forms with d. Residues, ends and D or L forms follow the SMILES beside them. NMeF = CN[C@@H](Cc1ccccc1)C(=O)O
result type: half-life at 0.5 mg/ml (min)
Report the value in min with no unit label.

Which half-life at 0.5 mg/ml value is on record for CC[C@H](C)[C@H](NC(=O)[C@@H]1CCCN1C(=O)[C@@H](NC(=O)[C@H](Cc1ccccc1)NC)C(C)C)C(=O)N[C@@H](Cc1ccccc1)C(=O)N[C@H](C(=O)N[C@@H](Cc1ccc(O)cc1)C(=O)NCC(=O)N[C@@H](CCC(=O)O)C(=O)N[C@H]1CC(=O)NCCCC[C@@H](C(=O)N[C@@H](CCCCN)C(N)=O)NC(=O)[C@H](CC(C)C)NC(=O)[C@@H](CCCNC(=N)N)NC(=O)[C@H](C)NC1=O)[C@@H](C)O [SEQ ID NO:12] (H-[NMeF]VPIFTYGEDA[dR]LKK-NH2; lactam 10-14) ? 16

Values compiled from patent US5734012A.
